# Measurement Description: Liver microsome incubation (HLM Phase I and Phase I + II), LC-MS/MS
# Format: in vitro ADME, human
# Recorded Conditions: human, human liver microsomes, HLM Phase I; read-out: HLM Phase I CLint
Recorded Metric: microsomal CLint (µL/min/mg)
Give bare numbers, in µL/min/mg.

// known answers, use as guide
- Compound: "O=c1c2c(O)cc(O)cc2c(Br)cn1-c1cccc(O)c1 [ZW-315-047]"
  microsomal CLint / µL/min/mg: 16
- Compound: "O=c1c2ccc(O)cc2c(-c2ccc(O)cc2)cn1-c1ccc(CBr)cc1 [Compound 11]"
  microsomal CLint / µL/min/mg: 84.1
- Compound: "COc1ccc(-c2cn(-c3ccc(O)cc3)c(=O)c3c(O)cc(O)cc23)cc1 [Compound 15g]"
  microsomal CLint / µL/min/mg: 42.1
- Compound: "O=c1c2ccc(O)cc2c(-c2ccccc2)cn1-c1ccc(O)cc1 [Compound 15a]"
  microsomal CLint / µL/min/mg: 4.5
- Compound: "O=c1c2c(O)cc(O)cc2c(-c2ccccc2)cn1-c1ccc(O)cc1 [Compound 15h]"
  microsomal CLint / µL/min/mg: 7.9
- Compound: "COc1ccc(-c2cn(-c3ccc(O)cc3)c(=O)c3ccc(O)cc23)cc1 [Compound 15b]"
  microsomal CLint / µL/min/mg: 24.5

Consider the record given below.
Measured microsomal CLint, O=c1c2ccc(O)cc2c(-c2ccc(C(F)(F)F)cc2)cn1-c1ccc(C(F)(F)F)cc1 [Compound 30] : 6.8

====

# Target Entity: AKR1C3 (Homo sapiens, UniProt P42330)
pIC50: −log10 of the molar value.
Recorded Metric: pIC50

Measured pIC50, COc1ccc(C=CC(=O)O)cc1OC [3,4,dimethoxy cinnamic acid] : < 5.00

====

# Target Entity: AKR1C3 (Homo sapiens, UniProt P42330)
# Sequence (P42330 1-323): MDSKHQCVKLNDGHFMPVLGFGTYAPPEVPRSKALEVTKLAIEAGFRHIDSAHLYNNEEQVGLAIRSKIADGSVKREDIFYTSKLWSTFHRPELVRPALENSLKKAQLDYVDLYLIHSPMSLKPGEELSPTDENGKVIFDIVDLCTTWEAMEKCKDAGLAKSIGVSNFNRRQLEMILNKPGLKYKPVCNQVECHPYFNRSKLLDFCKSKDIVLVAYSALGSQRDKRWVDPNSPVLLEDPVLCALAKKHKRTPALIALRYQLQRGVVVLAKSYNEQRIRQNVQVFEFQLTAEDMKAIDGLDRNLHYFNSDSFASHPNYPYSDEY
# Measurement Description: cell-based
Recorded Metric: IC50 (nM)
Answers are plain numbers, in nM.

- Compound: "O=c1c2ccc(O)cc2c(-c2ccccc2)cn1-c1ccc(O)cc1 [Compound 15a]"
  Readout Units: "nM"
  IC50: 16100
- Compound: "O=c1c2ccc(O)cc2c(-c2ccc(C(F)(F)F)cc2)cn1-c1ccc(CBr)c(O)c1"
  Readout Units: "nM"
  IC50: 289
- Compound: "O=c1c2ccc(O)cc2c(-c2ccc(O)cc2)cn1-c1ccc(CO)cc1"
  Readout Units: "nM"
  IC50: 1320
- Compound: "O=C(O)/C=C/c1cn(-c2ccc(O)cc2)c(=O)c2c(O)cc(O)cc12 [Compound 15l]"
  Readout Units: "nM"
  IC50: 1710
- Compound: "O=c1c2ccc(O)cc2c(-c2ccc(O)cc2)cn1-c1ccc(CBr)cc1"
  Readout Units: "nM"
  IC50: 5180
- Compound: "N#Cc1cc(O)cc2c(-c3cc(F)c(F)c(F)c3)cn(-c3ccc(O)cc3)c(=O)c12"
  Readout Units: "nM"
  IC50: 141
- Compound: "NC(=O)c1cccc(-n2cc(-c3ccc(C(F)(F)F)c(F)c3)c3cc(O)ccc3c2=O)c1"
  Readout Units: "nM"
  IC50: 241
- Compound: "O=c1c2c(O)cc(O)cc2c(-c2ccccc2)cn1-c1ccc(O)cc1 [Compound 15h]"
  Readout Units: "nM"
  IC50: 6640
- Compound: "O=c1c2ccc(O)cc2c(-c2ccc(C(F)(F)F)cc2)cn1-c1ccc(O)cc1"
  Readout Units: "nM"
  IC50: 451
- Compound: "O=C(O)c1cccc(Nc2ccc(C(F)(F)F)cc2)c1"
  Readout Units: "nM"
  IC50: 154

Consider the record given below.
Measured IC50, COc1ccc(-c2cn(-c3ccc(O)cc3)c(=O)c3c(O)cc(O)cc23)cc1 [Compound 15g] : 4520

====

# Target Entity: ER-alpha (Homo sapiens)
# Measurement Description: ER-alpha transactivation (ERE-LUC luciferase) in HEK-293 cells;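 note: HEK-293 cells co-transfected with an ER-alpha expression plasmid, an ERE-driven firefly luciferase reporter and a CMV Renilla control, with the firefly signal normalized to Renilla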
# Recorded Conditions: antagonist mode, in combination with estradiol; read-out: Antagonist ER-α
Recorded Metric: IC50

- Compound: "COc1ccc(-n2cc(-c3ccc(C(F)(F)F)cc3)c3cc(OC)ccc3c2=O)cc1 [Compound 35]"
  Recorded Metric: "IC50"
  Measurement: "> 10 µM"
- Compound: "O=c1c2ccc(O)cc2c(-c2ccc(C(F)(F)F)cc2)cn1-c1ccc(C(F)(F)F)cc1 [Compound 30]"
  Recorded Metric: "IC50"
  Measurement: "> 10 µM"
- Compound: "CNS(=O)(=O)c1ccc(-c2cn(-c3ccc(O)cc3)c(=O)c3ccc(O)cc23)cc1 [Compound 36]"
  Recorded Metric: "IC50"
  Measurement: "> 10 µM"

Consider the record given below.
Measured IC50, O=c1c2ccc(O)cc2c(-c2ccc(C(F)(F)F)cc2)cn1-c1ccc(F)cc1 [Compound 34] : > 10 µM

====

Kindly state HLM Phase I T-1/2 for each of the entries shown.
# Measurement Description: Liver microsome incubation (HLM Phase I and Phase I + II), LC-MS/MS
# Format: in vitro ADME, human
# Recorded Conditions: HLM Phase I
# Experimental: Stock solutions of prespective AKR1C3 inhibitors were prepared in DMSO at 5 mM and were incubated with liver microsomes (0.1 mg/mL). Incubations were conducted at 37° C. in a shaking water bath for 10 minutes (microsomes). Incubation durations were selected based on time course study (microsomes) or published literature (recombinant enzymes). Prepared samples were analyzed using LC-MS/MS.
Give bare numbers, in min.

// known answers, use as guide
- Compound: "O=c1c2c(O)cc(O)cc2c(-c2ccccc2)cn1-c1ccc(O)cc1 [Compound 15h]"
  HLM Phase I T-1/2 / min: 87.1
- Compound: "O=c1c2ccc(O)cc2c(-c2ccccc2)cn1-c1ccc(O)cc1 [Compound 15a]"
  HLM Phase I T-1/2 / min: 152.8
- Compound: "COc1ccc(-c2cn(-c3ccc(O)cc3)c(=O)c3ccc(O)cc23)cc1 [Compound 15b]"
  HLM Phase I T-1/2 / min: 28.3

Measured HLM Phase I T-1/2, O=c1c2ccc(O)cc2c(-c2ccc(C(F)(F)F)cc2)cn1-c1ccc(C(F)(F)F)cc1 [Compound 30] : 102.3

====

# Target Entity: UniProt Q92731
# Sequence (Q92731 264-498 limits assumed, species assumed): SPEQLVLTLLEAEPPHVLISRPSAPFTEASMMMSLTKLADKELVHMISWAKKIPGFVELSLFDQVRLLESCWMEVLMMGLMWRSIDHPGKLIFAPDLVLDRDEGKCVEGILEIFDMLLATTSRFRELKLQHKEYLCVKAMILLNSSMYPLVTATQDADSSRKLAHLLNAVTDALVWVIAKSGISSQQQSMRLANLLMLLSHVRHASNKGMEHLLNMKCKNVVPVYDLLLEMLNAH
# Measurement Description: ER-β ligand binding domain competitive binding with [3H]Estradiol
Kindly state Ki for each of the entries shown.
Give bare numbers, in nM.

// known answers, use as guide
- Compound: "O=c1c2ccc(O)cc2c(-c2ccccc2)cn1-c1ccc(O)cc1 [Compound 15a]"
  Target Entity: "UniProt Q92731"
  Ki (nM): 130
- Compound: "O=c1c2c(O)cc(O)cc2c(-c2ccccc2)cn1-c1ccc(O)cc1 [Compound 15h]"
  Target Entity: "UniProt Q92731"
  Ki (nM): 3.03

Would you mind giving Ki for every compound in the list below?
1. O=c1c2c(O)cc(O)cc2c(Br)cn1-c1cccc(O)c1
2. COc1ccc(-c2cn(-c3ccc(O)cc3)c(=O)c3ccc(O)cc23)cc1 [Compound 15b]
3. C/C=C/c1cn(-c2ccc(O)cc2)c(=O)c2c(O)cc(O)cc12 [Compound 15i]
4. O=c1c2ccc(O)cc2c(-c2ccc(C(F)(F)F)cc2)cn1-c1ccc(O)cc1
5. O=C(O)/C=C/c1cn(-c2ccc(O)cc2)c(=O)c2c(O)cc(O)cc12 [Compound 15l]

Response:
1. 7.23
2. 252
3. 1.66
4. 157
5. 613

====

# Target Entity: ER-α (Homo sapiens)
# Sequence (P03372 311-547 limits assumed): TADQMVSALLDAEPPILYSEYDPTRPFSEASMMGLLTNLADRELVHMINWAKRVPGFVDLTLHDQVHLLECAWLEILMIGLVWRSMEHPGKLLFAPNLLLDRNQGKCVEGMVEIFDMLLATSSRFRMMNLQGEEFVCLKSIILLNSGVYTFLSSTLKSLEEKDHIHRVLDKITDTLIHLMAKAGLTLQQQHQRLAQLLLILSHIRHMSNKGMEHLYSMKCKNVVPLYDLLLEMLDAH
# Measurement Description: ER-α ligand binding domain competitive binding with [3H]Estradiol
Kindly state Ki for each of the entries shown.

// known answers, use as guide
- Smiles Record: "O=c1c2ccc(O)cc2c(-c2ccc(C(F)(F)F)cc2)cn1-c1ccc(O)cc1"
  Target Entity: "ER-α (Homo sapiens)"
  Measurement: "> 1510 nM"
- Smiles Record: "O=c1c2ccc(O)cc2c(-c2ccc(C(F)(F)F)cc2)cn1-c1ccc(F)cc1"
  Target Entity: "ER-α (Homo sapiens)"
  Measurement: "> 1510 nM"
- Smiles Record: "O=c1c2ccc(O)cc2c(-c2ccc(O)cc2)cn1-c1ccc(O)cc1"
  Target Entity: "ER-α (Homo sapiens)"
  Measurement: "1420 nM"

Measured Ki, O=c1c2ccc(O)cc2c(-c2ccc(C(F)(F)F)cc2)cn1-c1ccc(CBr)c(O)c1 : > 1510 nM
